Listed here: items and their measured IL-1α IC50.
Target: T1, human IL-1α (human, UniProt P01583 113-271)
T1 sequence (looked up): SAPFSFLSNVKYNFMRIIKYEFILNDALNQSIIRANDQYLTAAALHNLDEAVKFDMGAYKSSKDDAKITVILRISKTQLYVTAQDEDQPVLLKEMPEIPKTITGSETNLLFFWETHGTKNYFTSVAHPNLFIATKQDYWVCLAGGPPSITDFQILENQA
Assay: cell-based or functional assay
Give the value, in units of nM, as a plain number.

Q. What does the record list as IL-1α IC50 for ABT2-108-620x/ABT1-122-512 huIgG1/K wt (bispecific antibody, V domains shown) VH: EVQLLESGGGLVQPGGSLRLSCAASGFTFAEESWMWVRQAPGKGLEWVSRIGQDGKNTYYREDVKGRFTISRDNSKNTLYLQMNSLRAEDTAVYYCAKYTGRIMGHHLFDYWGQGTLVTVSS VL: DIQMTQSPSSLSASVGDRVTITCRASQPIWTELNWYQQKPGKAPKLLIYGSAKRQRGVPSRFSGSGSGTDFTLTISSLQPEDFATYYCKQFAYFPATFGQGTKVEIKR ?
A. 150

Q. Entry ABT2-108-620x/ABT1-122-750x huIgG1/K wt (bispecific antibody, V domains shown) VH: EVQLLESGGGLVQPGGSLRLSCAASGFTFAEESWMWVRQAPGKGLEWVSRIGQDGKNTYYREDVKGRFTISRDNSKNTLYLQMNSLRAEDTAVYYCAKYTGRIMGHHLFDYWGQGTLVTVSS VL: DIQMTQSPSSLSASVGDRVAITCSASQHIWTEISWYQQKPGKAPKLLIYGSASRQKGVPSRFSGSGSGTDFTLTISSLQPEDFATYYCKQFAYFPNTFGQGTKVEIKR please
A. 17.5

Q. Entry ABT2-108/ABT1-122-505 hu IgG1/K wt (bispecific antibody, V domains shown) VH: EVQLLESGGGLVQPGGSLRLSCAASGFTFAEYTMMWVRQAPGKGLEWVSRIGQDGKNTYYADSVKGRFTISRDNSKNTLYLQMNSLRAEDTAVYYCAKYTGRVGVHHLFDYWGQGTLVTSS VL: DIQMTQSPSSLSASVGDRVTITCRASQPIWTELNWYQQKPGKAPKLLIYGSSSLQSGVPSRFSGSGSGTDFTLTISSLQPEDFATYYCKQFAYFPATFGQGTKVEIKR please
A. 2000

Q. Entry ABT2-108-620x/ABT1-122-750M hu IgG1 wt (bispecific antibody, V domains shown) VH: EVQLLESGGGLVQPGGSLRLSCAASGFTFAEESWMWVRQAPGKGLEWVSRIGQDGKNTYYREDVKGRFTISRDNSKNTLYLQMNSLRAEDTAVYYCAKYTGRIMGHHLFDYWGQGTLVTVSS VL: DIQMTQSPSSLSASVGDRVTITCSASQHIWTEMSWYQQKPGKAPKLLIYGSASRQKGVPSRFSGSGSGTDFTLTISSLQPEDFATYYCKQFAYFPNTFGQGTKVEIKR please
A. 18.5

Let us move to another entry and its IL-1α IC50.
Q. What does the record list as IL-1α IC50 for ABT2-65-166/ABT1-95-A5 hu IgG1mut 234, 235/K (bispecific antibody, V domains shown) VH: EVQLLESGGGLVQPGGSLRLSCAASGFTFEDYQMGWVRQAPGKGLEWVSSISAMGGRTYYADSVKGRFTISRDNSKNTLYLQMNSLRAEDTAVYYCAQNLVRLGRSRWMFDYWGQGTLVTVSS VL: DIQMTQSPSSLSASVGDRVTITCRASRTPVRNLRWYQQKPGKAPKLLIYSRSFLEPGVPSRFSGSGSGTDFTLTISSLQPEDFATYHCLQGYRWPPTFGQGTKVEIKR ?
A. 0.015
